From: patent US20040121947A1

target: T1, memapsin 2 (Homo sapiens, UniProt P56817); test: Inhibition of memapsin 2 proteolytic activity, fluorogenic substrate FS-2; format: biochemical; conditions: ratio of initial cleavage velocities of FS-2 with/without compound; enzyme and inhibitor concentrations equal (e.g., about 80 nM, 100 nM)
T1 construct: pET-11 vector-derived residues 1-15 of promemapsin 2-T1 (N, cleaved yes); made in house; host or cells: E. coli
T1 sequence (P56817 41-454 limits assumed): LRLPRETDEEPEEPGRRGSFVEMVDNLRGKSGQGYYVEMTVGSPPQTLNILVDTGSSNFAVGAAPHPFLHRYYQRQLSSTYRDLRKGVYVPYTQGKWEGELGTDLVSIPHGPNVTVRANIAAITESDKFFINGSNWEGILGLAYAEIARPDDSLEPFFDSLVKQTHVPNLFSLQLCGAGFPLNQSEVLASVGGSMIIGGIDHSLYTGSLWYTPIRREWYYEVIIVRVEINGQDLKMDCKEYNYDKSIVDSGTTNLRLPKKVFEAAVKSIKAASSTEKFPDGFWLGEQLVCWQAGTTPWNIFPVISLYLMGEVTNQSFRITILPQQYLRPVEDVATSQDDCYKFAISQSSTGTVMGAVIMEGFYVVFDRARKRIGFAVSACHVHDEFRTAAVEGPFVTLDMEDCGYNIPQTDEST
This section presents molecules with their documented Vi/Vo values.

[
  {
    "molecule": "CSCC[C@H](NC(=O)[C@@H](NC(=O)OC(C)(C)C)C(C)C)C(=O)N[C@@H](CC(C)C)[C@@H](O)C[C@@H](C)C(=O)N[C@@H](C(C)C)C1CCCO1 (stereo partly shown) [MMI-154]",
    "Vi/Vo": 0.1
  },
  {
    "molecule": "CSCC[C@H](NC(=O)OCn1nc(C)cc1C)C(=O)N[C@@H](CC(C)C)[C@@H](O)C[C@@H](C)C(=O)N[C@@H](CC(C)C)C(=O)NC(CF)CF [MMI-171]",
    "Vi/Vo": 0.55
  },
  {
    "molecule": "CC(C)C[C@H](NC(=O)[C@H](CS(C)(=O)=O)NC(=O)OCc1cccnc1)[C@@H](O)C[C@@H](C)C(=O)N[C@H](C(=O)NCc1ccccc1)C(C)C [MMI-142]",
    "Vi/Vo": 0.92
  },
  {
    "molecule": "CSC[C@H](NC(=O)OCc1ccccn1)C(=O)N[C@@H](CC(C)C)[C@@H](O)C[C@@H](C)C(=O)N[C@@H](CC(C)C)C(=O)NCc1ccccc1 [MMI-124]",
    "Vi/Vo": 0.93
  },
  {
    "molecule": "CC(C)C[C@H](NC(=O)[C@@H]1CC(=O)NC/C=C\\CCOC(=O)N[C@@H](C(C)C)C(=O)N1)[C@@H](O)C[C@@H](C)C(=O)N[C@H](C(=O)NCc1ccccc1)C(C)C [MMI-152]",
    "Vi/Vo": 0.47
  },
  {
    "molecule": "CSCC[C@H](NC(=O)OCn1nc(C)cc1C)C(=O)N[C@@H](CC(C)C)[C@@H](O)C[C@]1(C)CCN([C@@H](CC(C)C)C(=O)NCC(C)C)C1=O [MMI-181]",
    "Vi/Vo": 0.53
  },
  {
    "molecule": "CC(C)CNC(=O)[C@@H](NC(=O)[C@H](C)C[C@H](O)[C@H](CC(C)C)NC(=O)[C@H](CCS(C)(=O)=O)NC(=O)[C@H](CC(C)C)NC(=O)OC(C)(C)C)C(C)C [MMI-135]",
    "Vi/Vo": 0.12
  },
  {
    "molecule": "CCCCNC(=O)[C@@H](NC(=O)[C@H](C)C[C@H](O)[C@H](CC(C)C)NC(=O)[C@H](CCSC)NC(=O)OCn1nc(C)cc1C)C(C)C [MMI-167]",
    "Vi/Vo": 0.56
  },
  {
    "molecule": "CSCC[C@H](NC(=O)[C@H](CC(C)C)NC(=O)OC(C)(C)C)C(=O)N[C@@H](CC(C)C)[C@@H](O)C[C@@H](C)C(=O)N[C@H](C(=O)NCc1ccco1)C(C)C [MMI-161]",
    "Vi/Vo": 0.06
  },
  {
    "molecule": "CCCCNC(=O)[C@H](CC(C)C)NC(=O)[C@H](C)C[C@H](O)[C@H](CC(C)C)NC(=O)[C@H](CCSC)NC(=O)[C@H](CC(C)C)NC(=O)OC(C)(C)C [MMI-160]",
    "Vi/Vo": 0.19
  },
  {
    "molecule": "CC(C)C[C@H](NC(=O)[C@@H]1CC(=O)NC/C=C\\COC(=O)N[C@@H](C(C)C)C(=O)N1)[C@@H](O)C[C@@H](C)C(=O)N[C@H](C(=O)NCc1ccccc1)C(C)C [MMI-149]",
    "Vi/Vo": 0.66
  },
  {
    "molecule": "CSCC[C@H](NC(=O)[C@@H](NC(=O)OC(C)(C)C)C(C)C)C(=O)N[C@@H](CC(C)C)[C@@H](O)C[C@@H](CO)C(=O)N[C@H](C(=O)NCc1ccccc1)C(C)C [MMI-132]",
    "Vi/Vo": 0.46
  },
  {
    "molecule": "CSCC[C@H](NC(=O)[C@H](CC(C)C)NC(=O)OC(C)(C)C)C(=O)N[C@@H](CC(C)C)[C@H](O)C[C@H](C)C(=O)N[C@H](C(=O)NCc1ccccc1)C(C)C [MMI-133]",
    "Vi/Vo": 0.09
  },
  {
    "molecule": "CSCC[C@H](NC(=O)[C@@H](NC(=O)OC(C)(C)C)C(C)C)C(=O)N[C@@H](CC(C)C)[C@@H](O)C[C@@H](C)C(=O)N[C@@H](C(C)C)C1CC(Cc2ccccc2)CCO1 (stereo partly shown) [MMI-146-S]",
    "Vi/Vo": 1.04
  },
  {
    "molecule": "CCCCNC(=O)[C@@H](NC(=O)[C@H](C)C[C@H](O)[C@H](CC1CCC1)NC(=O)[C@H](CCSC)NC(=O)OCn1nc(C)cc1C)C(C)C [MMI-178]",
    "Vi/Vo": 0.69
  },
  {
    "molecule": "CC(C)C[C@H](NC(=O)[C@H](C)C[C@H](O)[C@H](CC(C)C)NC(=O)[C@H](CS(C)(=O)=O)NC(=O)OCc1cccnc1)C(=O)NCc1ccccc1 [MMI-143]",
    "Vi/Vo": 1
  }
]

###

target: T1, memapsin 2 (Homo sapiens, UniProt P56817); test: Inhibition of memapsin 2 proteolytic activity, fluorogenic substrate FS-2; format: biochemical; conditions: memapsin 2; independent of substrate, converted from Ki apparent; read-out: Ki
T1 construct: pET-11 vector-derived residues 1-15 of promemapsin 2-T1 (N, cleaved yes); made in house; host or cells: E. coli
This section presents compounds with their documented log10(Ki) values.
property name: log10(Ki) (log10 of the value in µM)

[
  {
    "compound": "CSCC[C@H](NC(=O)OCn1nc(C)cc1C)C(=O)N[C@@H](CC(C)C)[C@@H](O)C[C@@H](C)C(=O)N[C@H](C(=O)NC(C)C)C(C)C",
    "log10(Ki)": -1.82
  },
  {
    "compound": "CC(C)C[C@H](NC(=O)[C@H](C)C[C@H](O)[C@H](CC(C)C)NC(=O)[C@H](CCS(C)(=O)=O)NC(=O)[C@@H](NC(=O)OC(C)(C)C)C(C)C)C(=O)NC1Cc2ccccc2C1",
    "log10(Ki)": -1.34
  },
  {
    "compound": "CSCC[C@H](NC(=O)[C@H](CC(C)C)NS(C)(=O)=O)C(=O)N[C@@H](CC(C)C)[C@@H](O)C[C@@H](C)C(=O)N[C@H](C(=O)NCc1ccccc1)C(C)C",
    "log10(Ki)": -2.13
  },
  {
    "compound": "CSCC[C@H](NC(=O)OCc1cccnc1)C(=O)N[C@@H](Cc1ccccc1)[C@@H](O)C[C@@H](C)C(=O)N[C@H](C(=O)NCc1ccccc1)C(C)C",
    "log10(Ki)": 0.11
  },
  {
    "compound": "CSCC[C@H](NC(=O)[C@@H](NC(=O)OC(C)(C)C)C(C)C)C(=O)N[C@@H](CC(C)C)[C@@H](O)C[C@]1(C)CCN([C@H](C(=O)N2CCN(C)CC2)C(C)C)C1=O",
    "log10(Ki)": -0.63
  },
  {
    "compound": "CC(C)C[C@H](NC(=O)OC(C)(C)C)[C@@H](O)C[C@@H](C)C(=O)N[C@@H](C)C(=O)N[C@@H](CCS(C)(=O)=O)C(=O)NCc1ccccc1",
    "log10(Ki)": 3.22
  },
  {
    "compound": "CC(C)C[C@H](NC(=O)[C@H](CCS(C)(=O)=O)NC(=O)[C@@H](NC(=O)OC(C)(C)C)C(C)C)[C@@H](O)C[C@@H](C)C(=O)N[C@@H]1c2ccccc2C[C@@H]1O",
    "log10(Ki)": 2.47
  },
  {
    "compound": "CSCC[C@H](NC(=O)[C@@H](NC(=O)OC(C)(C)C)C(C)C)C(=O)N[C@@H](CC(C)C)[C@@H](O)C[C@@H](C)C(=O)N[C@@H](CC(C)C)C(=O)N1CCN(C)CC1",
    "log10(Ki)": -0.92
  },
  {
    "compound": "CC(C)C[C@H](NC(=O)[C@H](CS(C)(=O)=O)NC(=O)OC(C)(C)C)[C@@H](O)C[C@@H](C)C(=O)N[C@H](C(=O)NCc1ccccc1)C(C)C",
    "log10(Ki)": -0.04
  },
  {
    "compound": "COCC[C@H](NC(=O)C(Cn1nc(C)cc1C)C(C)C)C(=O)N[C@@H](CC(C)C)[C@@H](O)C[C@@H](C)C(=O)N[C@H](C(=O)NCC(C)C)C(C)C (some centres unmarked)",
    "log10(Ki)": -0.96
  },
  {
    "compound": "CSCC[C@H](NC(=O)[C@@H](NC(=O)OC(C)(C)C)C(C)C)C(=O)N[C@@H](CC(C)C)[C@@H](O)C[C@@H](C)C(=O)N[C@@H](CC(C)C)C(=O)NC1Cc2ccccc2C1",
    "log10(Ki)": -1.88
  }
]
